target_desc: Gamma-secretase subunit PEN-2 (Homo sapiens)
test_summary: Compound required for inhibition of gamma-secretase-mediated formation of Abeta1-40 polypeptide
Format: functional
measured_endpoint: ED50

Some solved entries appear below for comparison.
{"compound": "CCC(C)[C@H](NC(=O)[C@@H](NC(=O)[C@@H](C[C@@H](O[Si](C)(C)C(C)(C)C)[C@H](C)NC(=O)OC(C)(C)C)[C@@H](C)O[Si](C)(C)C(C)(C)C)C(C)C)C(N)=O (some centres not stated)", "ED50": "> 10 µM"}
{"compound": "CCC(C)[C@H](NC(=O)[C@@H](NC(=O)[C@H](C[C@@H](O[Si](C)(C)C(C)(C)C)[C@H](C)NC(=O)OC(C)(C)C)C(C)O[Si](C)(C)C(C)(C)C)C(C)C)C(N)=O (some centres not stated)", "ED50": "> 10 µM"}
{"compound": "CCC(C)[C@H](NC(=O)[C@@H](NC(=O)[C@@H](C[C@@H](O[Si](C)(C)C(C)(C)C)[C@H](C)NC(=O)OC(C)(C)C)[C@H](C)O[Si](C)(C)C(C)(C)C)C(C)C)C(N)=O (some centres not stated)", "ED50": "> 10 µM"}

Prompt: Would you mind telling me what ED50 value was observed for "CC(C)C[C@H](NC(=O)[C@H](Cc1ccccc1)C[C@@H](O)[C@H](Cc1ccccc1)NC(=O)OC(C)(C)C)C(=O)N[C@@H](Cc1ccccc1)C(N)=O" ?
Response: 0.036 µM

Prompt: Here is the next compound: "CC[C@H](C)[C@H](NC(=O)[C@@H](NC(=O)[C@H](Cc1ccccc1)C[C@@H](O)[C@H](Cc1ccccc1)NC(=O)OC(C)(C)C)C(C)C)C(N)=O"
Response: 32 µM

Prompt: What about this compound? "CC(C)C[C@H](NC(=O)/C(=C/C[C@H](Cc1ccccc1)NC(=O)OC(C)(C)C)Cc1ccccc1)C(=O)N[C@@H](Cc1ccccc1)C(N)=O"
Response: > 10 µM

Prompt: Another compound: CC(C)C[C@H](NC(=O)C(CC[C@H](Cc1ccccc1)NC(=O)OC(C)(C)C)Cc1ccccc1)C(=O)N[C@@H](Cc1ccccc1)C(N)=O (some centres not stated)
Response: > 10 µM

====

ED50 values by entry
target_desc: Gamma-secretase subunit PEN-2 (Homo sapiens, UniProt Q9NZ42)
Sequence (Q9NZ42 whole entry): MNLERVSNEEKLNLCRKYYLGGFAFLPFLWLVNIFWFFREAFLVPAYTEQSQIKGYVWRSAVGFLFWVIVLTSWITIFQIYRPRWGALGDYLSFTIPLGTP
test_summary: Compound required for inhibition of gamma-secretase-mediated formation of Abeta1-40 polypeptide
Assay type: functional

Completed entries (count: 2):
{"molecule": "CC(C)C[C@H](NC(=O)[C@H](CN)C[C@@H](O)[C@H](Cc1ccccc1)NC(=O)OC(C)(C)C)C(=O)N[C@@H](Cc1ccccc1)C(N)=O", "ED50": "> 10 µM"}
{"molecule": "CCC(C)C(C[C@@H](O[Si](C)(C)C(C)(C)C)[C@@H](NC(=O)OC(C)(C)C)C(C)C)C(=O)N[C@@H](C)C(=O)N[C@H](C(N)=O)C(C)O (stereo partly drawn)", "ED50": "> 10 µM"}

// below: ED50 requested for another molecule
Prompt: Dear colleague, I am looking for the recorded ED50 of the following molecule: CC(NC(=O)[C@H](Cc1ccccc1)C[C@@H](O)[C@H](Cc1ccccc1)NC(=O)OC(C)(C)C)C(=O)N[C@H](C(N)=O)[C@H](C)O (single isomer, unassigned)
Response: 732 µM
